- Assay protocol: AUC (0 to 24 hrs) in mouse brain at 20 mg/kg, ip
- Format: ADME, organism-based
- Design: time < 24 hr, dose 20 mg/kg, route intraperitoneal
Property measured: AUC(0-t) at 24 h

Exercise: Using the record for `O=C(Nc1ncc(C2(O)CCC2)s1)c1ccc(F)c(Cl)c1` , report its AUC(0-t) at 24 h.
Key: 51300 ng·h/mL

---

- Assay protocol: Fraction unbound in human plasma
- Format: ADME, cell-free
Property measured: fraction unbound
Lab note: record the figure alone, no unit after it.

Exercise: Using the record for `O=C(Nc1ncc(C2(O)CCC2)s1)c1ccc(F)c(Cl)c1` , report its fraction unbound.
Key: 0.035

---

// values below are reported solubility kinetic
- Assay protocol: Aqueous solubility of the compound at pH 7.4
- Assay type: physicochemical
- Test context: aqueous solution
Lab book: enter the figure in µM, no units written.

The examples below pair each entry with its known result.
| Line notation | solubility kinetic / µM |
| --- | --- |
| CC(C)c1cc(C(=O)Nc2ccccc2)no1 | 59 |
| CC(C)c1cc(C(=O)Nc2ccc(F)c(Cl)c2)no1 | 6 |
| O=C(Nc1ncc(C2(O)CCC2)s1)c1ccc(F)c(Cl)c1 | 31 |
| CC(C)c1cc(C(=O)Nc2ccccn2)no1 | 77 |
| CC(C)c1cc(C(=O)Nc2cccc(F)c2)no1 | 49 |

Now consider the entry below.
Exercise: Using the record for `CC(C)c1cc(C(=O)Nc2nc3ccccc3[nH]2)no1` , report its solubility kinetic.
Key: 12

---

- Measurement target: CYP2C19 (Homo sapiens, UniProt P33261)
- Sequence (P33261 whole entry): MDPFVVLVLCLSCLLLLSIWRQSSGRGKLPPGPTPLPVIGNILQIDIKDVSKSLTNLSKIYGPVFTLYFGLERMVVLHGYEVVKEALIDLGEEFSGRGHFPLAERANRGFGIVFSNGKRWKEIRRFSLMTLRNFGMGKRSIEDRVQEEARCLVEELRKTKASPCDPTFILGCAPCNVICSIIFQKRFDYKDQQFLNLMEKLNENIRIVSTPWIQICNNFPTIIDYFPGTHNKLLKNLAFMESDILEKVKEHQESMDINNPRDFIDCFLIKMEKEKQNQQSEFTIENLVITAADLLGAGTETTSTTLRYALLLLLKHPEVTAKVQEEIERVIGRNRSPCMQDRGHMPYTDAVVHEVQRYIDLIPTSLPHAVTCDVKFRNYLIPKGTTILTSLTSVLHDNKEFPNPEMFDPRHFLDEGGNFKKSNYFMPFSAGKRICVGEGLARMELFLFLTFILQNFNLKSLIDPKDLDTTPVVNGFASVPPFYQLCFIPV
- Assay protocol: Inhibition of CYP2C19 (unknown origin) at 10 uM
- Format: ADME
Property measured: inhibition at 10 µM

Exercise: Using the record for `O=C(Nc1ncc(C2(O)CCC2)s1)c1ccc(F)c(Cl)c1` , report its inhibition at 10 µM.
Key: < 50%

---

// values below are reported t1/2
- System: Plasma
- Assay protocol: Half life in mouse plasma after 60 mins
- Type: ADME, cell-free
- Test context: 1 h
Lab book: enter the figure in min, no units written.

| Line notation | Quantity unit | Reading |
| --- | --- | --- |
| CC(C)c1cc(C(=O)Nc2ccc(F)c(Cl)c2)no1 | min | 13 |
| CC(C)c1cc(NC(=O)c2ccc(F)c(Cl)c2)no1 | min | 183 |
| CC(C)c1cc(C(=O)N(C)c2ccc(F)c(Cl)c2)no1 | min | 5 |
| Cc1c(C(=O)Nc2ccc(F)c(Cl)c2)noc1C(C)C | min | 76 |

Exercise: Using the record for `CC(C)c1cc(C(=O)Nc2ccccc2F)no1` , report its t1/2.
Key: 9

Exercise: Same lookup for `CC(C)c1cc(C(=O)Nc2ccccc2)no1` , please.
Key: 8

Exercise: Same lookup for `O=C(Nc1ncc(C2(O)CCC2)s1)c1ccc(F)c(Cl)c1` , please.
Key: 326

---

- Measurement target: UniProt:P11509
- Sequence (P11509 whole entry): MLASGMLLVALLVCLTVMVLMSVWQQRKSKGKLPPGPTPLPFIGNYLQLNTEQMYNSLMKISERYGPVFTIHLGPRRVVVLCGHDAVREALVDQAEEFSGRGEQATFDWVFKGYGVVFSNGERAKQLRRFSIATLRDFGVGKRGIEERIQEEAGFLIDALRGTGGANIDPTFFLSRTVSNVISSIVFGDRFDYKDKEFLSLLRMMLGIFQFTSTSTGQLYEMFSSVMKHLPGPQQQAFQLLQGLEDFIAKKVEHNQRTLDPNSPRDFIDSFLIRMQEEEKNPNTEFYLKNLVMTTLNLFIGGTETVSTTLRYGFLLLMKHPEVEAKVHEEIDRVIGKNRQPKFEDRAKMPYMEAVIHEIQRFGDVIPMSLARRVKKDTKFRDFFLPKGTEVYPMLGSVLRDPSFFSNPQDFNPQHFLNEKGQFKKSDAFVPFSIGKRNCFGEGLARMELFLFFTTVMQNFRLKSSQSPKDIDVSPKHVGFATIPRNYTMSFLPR
- Assay protocol: Inhibition of CYP2A6 (unknown origin) at 10 uM
- Format: ADME
Property measured: inhibition at 10 µM

Exercise: Using the record for `O=C(Nc1ncc(C2(O)CCC2)s1)c1ccc(F)c(Cl)c1` , report its inhibition at 10 µM.
Key: < 50%
